Assay: DAX1 (NR0B1) inhibitors on StAR promoter, primary screen, cell-based, luminescence, SF-1 (NR5A1), full-length DAX-1 (AID 652010);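 also: 0% = DAX-1 cells with DMSO and 100% = cells lacking DAX-1 with DMSO; higher inhibition means more luminescence from relief of DAX-1 repression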
Settings: HEK293T StAR-luciferase reporter, SF-1/DAX-1 repression relief; at 6.8 µM; active compounds read high
The campaign covered roughly 370,000 compounds. About 4,100 (1.1%) were called active. What follows is part of a selection rich in actives, with near analogues and random picks from the rest.
value type: inhibition (%)
Give just the number in %; leave the unit off.

# compound, inhibition [%]
measured = [
    ("O=C(CCCCCn1c(=O)[nH]c2ccccc2c1=O)NCCc1c[nH]c2ccccc12", -0.81),
]

inhibition lookup needed for COc1ccc(C(C#N)=C2C=CC(=NO)c3ccccc32)cc1 , thanks. 4.3

Which inhibition reading was recorded for the compound Cc1ccc(CN2CCC(N3CCC(C(=O)NCC4CCCO4)CC3)CC2)o1 (stereo unspecified) ? 0.9

// query inhibition value for entry CN(CC(=O)Nc1cccc(F)c1)C(=O)C1CC(=O)N(CCc2ccccc2)C1 (stereo unspecified) 4.19

Returns the measured inhibition for the input compound. Input: O=S1(=O)c2c(cccc2N2CCSCC2)Oc2ccccc2CN1Cc1cn(Cc2ccc(F)cc2)nn1 -2.34

What value of inhibition has been recorded for this entry: COP(=O)(O)CNC(=O)OCc1ccccc1 -0.36
